Can you tell me clearance for the items I'm about to list?
Assay: in vivo
Settings: Sprague-Dawley, rat, iv, 1 mg/kg
Write the number in mL/min/kg without appending the unit.

State its clearance: C=CC(=O)Nc1ccccc1C1CCNc2c(C(N)=O)c(-c3ccc(OCC4CC4)cc3)nn21 (centres undefined)
82.3

# return recorded clearance for input C=CC(=O)N1CC(C2CCNc3c(C(N)=O)c(-c4ccc(Oc5ccccc5)cc4)nn32)C1 (centres undefined)
169

Specify clearance for C=CC(=O)N1CCC([C@@H]2CCNc3c(C(N)=O)c(-c4ccc(Oc5ccccc5)cc4)nn32)CC1 [ZANUBRUTINIB] and stop.
76.8

Return value of clearance for input C=CC(=O)NCC1CCNc2c(C(N)=O)c(-c3ccc(Oc4ccccc4)cc3)nn21 (centres undefined) , no commentary.
93.9

###

Assay: Plasma concentration in ICR mouse at 2.9 mg/kg, po administered as single dose measured at 0.5 hrs by LC-MS/MS analysis
Assay type: ADME, organism-based
readout type: concentration at 0.5 h (nM)
Field format: number, assumed nM, no unit text.

Consider the compound C=CC(=O)N1CCC([C@@H]2CCNc3c(C(N)=O)c(-c4ccc(Oc5ccccc5)cc4)nn32)CC1 [ZANUBRUTINIB] and give its recorded concentration at 0.5 h.
320

###

Field: Tmax. Provide a value for each of the compounds that follow.
Assay: in vivo
Details: Sprague-Dawley, rat, po, 5 mg/kg
Returns: string containing the number followed by the unit.

Identify the reported Tmax for the following entry. C=CC(=O)N1CCC([C@@H]2CCNc3c(C(N)=O)c(-c4ccc(Oc5ccccc5)cc4)nn32)CC1 [ZANUBRUTINIB]
19.8 min

Supply reported Tmax belonging to this compound: C=CC(=O)NCC1CCNc2c(C(N)=O)c(-c3ccc(Oc4ccccc4)cc3)nn21 (centres undefined)
19.8 min

Given the compound C=CC(=O)Nc1ccccc1C1CCNc2c(C(N)=O)c(-c3ccc(OCC4CC4)cc3)nn21 (centres undefined) , write its reported Tmax.
19.8 min

For the compound C=CC(=O)N1CC(C2CCNc3c(C(N)=O)c(-c4ccc(Oc5ccccc5)cc4)nn32)C1 (centres undefined) , give its reported Tmax.
140 min

###

Assay: in vivo
Conditions: Sprague-Dawley, rat, po, 5 mg/kg
readout type: Cmax (ng/mL)
Numeric only. Scale: ng/mL

Specify reported Cmax for the molecule shown: C=CC(=O)N1CCC([C@@H]2CCNc3c(C(N)=O)c(-c4ccc(Oc5ccccc5)cc4)nn32)CC1 [ZANUBRUTINIB]
235

Give Cmax for the following molecule: C=CC(=O)Nc1ccccc1C1CCNc2c(C(N)=O)c(-c3ccc(OCC4CC4)cc3)nn21 (centres undefined)
202

Respond only with Cmax recorded for C=CC(=O)N1CC(C2CCNc3c(C(N)=O)c(-c4ccc(Oc5ccccc5)cc4)nn32)C1 (centres undefined)
10.4

Return Cmax for the following molecule: C=CC(=O)NCC1CCNc2c(C(N)=O)c(-c3ccc(Oc4ccccc4)cc3)nn21 (centres undefined)
19.6

###

Assay: in vivo
Conditions: Sprague-Dawley, rat, po, 5 mg/kg
Could you please report measured bioavailability for the items listed next?
Give the value in % but do not write % after it.

Give the reported value of bioavailability for this record: C=CC(=O)N1CC(C2CCNc3c(C(N)=O)c(-c4ccc(Oc5ccccc5)cc4)nn32)C1 (centres undefined)
8.6

Return bioavailability for the following molecule: C=CC(=O)NCC1CCNc2c(C(N)=O)c(-c3ccc(Oc4ccccc4)cc3)nn21 (centres undefined)
5.7

Fill in bioavailability for record C=CC(=O)N1CCC([C@@H]2CCNc3c(C(N)=O)c(-c4ccc(Oc5ccccc5)cc4)nn32)CC1 [ZANUBRUTINIB]
23.6

Tell me its bioavailability given C=CC(=O)Nc1ccccc1C1CCNc2c(C(N)=O)c(-c3ccc(OCC4CC4)cc3)nn21 (centres undefined) as the entry.
34

###

Experiment: Oral bioavailability in human in fasting state at 560 mg administered daily
Type: ADME, organism-based
Settings: in vivo
readout type: bioavailability (%)
A number alone suffices; assume %.

Input C=CC(=O)N1CCC[C@@H](n2nc(-c3ccc(Oc4ccccc4)cc3)c3c(N)ncnc32)C1 , output reported bioavailability.
3.9

###

Test: Plasma concentration in ICR mouse at 17.7 mg/kg, po administered as single dose measured at 0.5 hrs by LC-MS/MS analysis
Assay type: ADME, organism-based
readout type: concentration at 0.5 h (nM)
Field format: number, assumed nM, no unit text.

Input C=CC(=O)N1CCC([C@@H]2CCNc3c(C(N)=O)c(-c4ccc(Oc5ccccc5)cc4)nn32)CC1 , output reported concentration at 0.5 h.
500

###

Assay: Plasma concentration in ICR mouse at 4.4 mg/kg, po administered as single dose measured at 0.5 hrs by LC-MS/MS analysis
Assay type: ADME, organism-based
readout type: concentration at 0.5 h (nM)
Provide the reading as a plain figure in nM.

Supply measured concentration at 0.5 h of C=CC(=O)N1CCC([C@@H]2CCNc3c(C(N)=O)c(-c4ccc(Oc5ccccc5)cc4)nn32)CC1 [ZANUBRUTINIB] in your reply.
180

###

Test: in vivo
Conditions: Sprague-Dawley, rat, iv, 1 mg/kg
I'd be grateful if you could share measured Vd for these entries.
Units required after the number.

# return recorded Vd for input C=CC(=O)NCC1CCNc2c(C(N)=O)c(-c3ccc(Oc4ccccc4)cc3)nn21 (centres undefined)
1.19 L/kg

Give reported Vd value for C=CC(=O)Nc1ccccc1C1CCNc2c(C(N)=O)c(-c3ccc(OCC4CC4)cc3)nn21 (centres undefined)
1.01 L/kg

Quote Vd reported for C=CC(=O)N1CC(C2CCNc3c(C(N)=O)c(-c4ccc(Oc5ccccc5)cc4)nn32)C1 (centres undefined) please.
2.85 L/kg

For the molecule C=CC(=O)N1CCC([C@@H]2CCNc3c(C(N)=O)c(-c4ccc(Oc5ccccc5)cc4)nn32)CC1 , give its measured Vd value.
2.32 L/kg

###

Test: in vivo
Details: Sprague-Dawley, rat, po, 5 mg/kg
Exercise: state measured AUC for each of the molecules provided.
State just the number; it will be interpreted in ng·h/mL.

Read the entry C=CC(=O)N1CC(C2CCNc3c(C(N)=O)c(-c4ccc(Oc5ccccc5)cc4)nn32)C1 (centres undefined) and write its reported AUC.
50.3

Give recorded AUC. C=CC(=O)NCC1CCNc2c(C(N)=O)c(-c3ccc(Oc4ccccc4)cc3)nn21 (centres undefined)
51.1

Given C=CC(=O)N1CCC([C@@H]2CCNc3c(C(N)=O)c(-c4ccc(Oc5ccccc5)cc4)nn32)CC1 , respond with its AUC.
257

Item C=CC(=O)Nc1ccccc1C1CCNc2c(C(N)=O)c(-c3ccc(OCC4CC4)cc3)nn21 (centres undefined) : provide AUC
344

###

Assay: Plasma concentration in ICR mouse at 8.9 mg/kg, po administered as single dose measured at 0.5 hrs by LC-MS/MS analysis
Format: ADME, organism-based
readout type: concentration at 0.5 h (nM)
Entry rule: numbers only, all in nM.

Look up concentration at 0.5 h of C=CC(=O)N1CCC([C@@H]2CCNc3c(C(N)=O)c(-c4ccc(Oc5ccccc5)cc4)nn32)CC1 and report it.
350

###

Assay: Plasma concentration in ICR mouse at 14.5 mg/kg, po administered as single dose measured at 2 hrs by LC-MS/MS analysis
Type: ADME, organism-based
readout type: concentration at 2 h (nM)
Please reply with the bare figure in nM and do not write the unit itself.

State its concentration at 2 h: C=CC(=O)N1CCC([C@@H]2CCNc3c(C(N)=O)c(-c4ccc(Oc5ccccc5)cc4)nn32)CC1
470

###

Experiment: Plasma concentration in ICR mouse at 0.7 mg/kg, po administered as single dose measured at 0.5 hrs by LC-MS/MS analysis
Assay type: ADME, organism-based
readout type: concentration at 0.5 h

Note concentration at 0.5 h for the molecule shown: C=CC(=O)N1CCC([C@@H]2CCNc3c(C(N)=O)c(-c4ccc(Oc5ccccc5)cc4)nn32)CC1
40 nM

###

Assay: Plasma concentration in ICR mouse at 2.2 mg/kg, po administered as single dose measured at 0.5 hrs by LC-MS/MS analysis
Assay type: ADME, organism-based
readout type: concentration at 0.5 h (nM)
Please reply with the bare figure in nM and do not write the unit itself.

Specify measured concentration at 0.5 h for C=CC(=O)N1CCC([C@@H]2CCNc3c(C(N)=O)c(-c4ccc(Oc5ccccc5)cc4)nn32)CC1 .
70

###

Assay: Plasma concentration in ICR mouse at […], po administered as single dose measured at 0.5 hrs by LC-MS/MS analysis
Format: ADME, organism-based
readout type: concentration at 0.5 h (µM)
Write the number in µM without appending the unit.

Specify reported concentration at 0.5 h for the molecule shown: C=CC(=O)N1CCC([C@@H]2CCNc3c(C(N)=O)c(-c4ccc(Oc5ccccc5)cc4)nn32)CC1 [ZANUBRUTINIB]
0.59
